system: Normal human neonatal epidermal melanocytes (NHEMs); assay: Alamar blue cell respiration activity (cell toxicity); assay type: cell-based; settings: 10 μM (IPMP 0.00015 w/v %); cultured NHEMs, 3 days; Example 2
Kindly supply the reported Alamar blue (cell toxicity) AVE values for the records listed here.

# Cc1ccc(C(C)C)c(O)c1 [compound 1, thymol] with Normal human neonatal epidermal melanocytes (NHEMs): Alamar blue (cell toxicity) AVE is 84.9

# Cc1ccc(C(C)C)cc1O [compound 2, carvacrol] with Normal human neonatal epidermal melanocytes (NHEMs): Alamar blue (cell toxicity) AVE is 94.2

# O=c1cc(CO)occ1O [Kojic acid] with Normal human neonatal epidermal melanocytes (NHEMs): Alamar blue (cell toxicity) AVE is 118.3

# Cc1cc(O)ccc1C(C)C [IPMP, isopropylmethylphenol] with Normal human neonatal epidermal melanocytes (NHEMs): Alamar blue (cell toxicity) AVE is 94.1

---

test system: Normal human neonatal epidermal melanocytes (NHEMs); test: Alamar blue cell respiration activity (cell toxicity); format: cell-based; settings: 100 μM (IPMP 0.0015 w/v %); cultured NHEMs, 3 days; Example 2
Kindly supply the reported Alamar blue (cell toxicity) AVE values for the records listed here.
// return a plain number; no unit text

# Alamar blue (cell toxicity) AVE (molecule: Cc1cc(O)ccc1C(C)C ) is 127

# Alamar blue (cell toxicity) AVE (molecule: Cc1ccc(C(C)C)c(O)c1 ) is 104.4

# Alamar blue (cell toxicity) AVE (molecule: O=c1cc(CO)occ1O ) is 114.4

# Alamar blue (cell toxicity) AVE (molecule: Cc1ccc(C(C)C)cc1O ) is 115.2
